- systemUnderTest: T1, PTHR1 on CHO-K1/Ga15/PTHR1 cells (UniProt Q03431 27-593, limits assumed)
- T1 sequence (looked up): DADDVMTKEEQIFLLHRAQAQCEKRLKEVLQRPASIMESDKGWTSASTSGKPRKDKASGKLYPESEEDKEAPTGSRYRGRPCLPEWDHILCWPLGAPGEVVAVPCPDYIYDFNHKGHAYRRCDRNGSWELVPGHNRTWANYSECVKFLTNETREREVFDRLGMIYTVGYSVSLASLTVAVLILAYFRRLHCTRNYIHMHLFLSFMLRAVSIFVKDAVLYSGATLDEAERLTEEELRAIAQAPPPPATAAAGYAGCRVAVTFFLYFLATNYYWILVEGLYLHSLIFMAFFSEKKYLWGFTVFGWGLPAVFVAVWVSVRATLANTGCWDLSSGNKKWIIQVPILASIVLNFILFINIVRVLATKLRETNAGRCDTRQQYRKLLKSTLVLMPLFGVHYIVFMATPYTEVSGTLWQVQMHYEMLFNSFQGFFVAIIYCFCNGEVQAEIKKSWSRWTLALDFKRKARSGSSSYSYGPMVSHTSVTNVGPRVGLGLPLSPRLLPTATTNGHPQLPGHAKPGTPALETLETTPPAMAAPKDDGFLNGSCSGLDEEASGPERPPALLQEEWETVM
- assayInfo: cell-based or functional assay
Each record here notes measured cAMP accumulation (HTRF): Emax.
Only the number, expressed in %, is required.

Record excerpt, results attached:
[[record]]
binder = "GVAELQLMHDLAKIKLELELKVKLLEILKDVY [R2-49]"
numericresult = 99.9

[[record]]
binder = "SIIGEQLMLLRALLRAEYELREMLLRLLEEIF [R2-18]"
numericresult = 36.6

[[record]]
binder = "AVAEIQLMHQRAKWSLREELEKLLKELLKEYI [R2-44]"
numericresult = 106

[[record]]
binder = "AVAEIQLMHQRAKWEIQEIGIKITLELLKEYI [R2-37]"
numericresult = 96.4


query: Endpoint output: cAMP accumulation (HTRF): Emax of GVAEIQLMHDIPVIRAEYELREMLLRLLEEIF [R2-3] . Value?
result: 260

query: What does the data say about its cAMP accumulation (HTRF): Emax? Entry: AVAEIQLMHQRAKWGLDLELAVKLQEILKDVL [R2-28]
result: 99.2

query: Fill in the blank: the reported cAMP accumulation (HTRF): Emax of SVMMIQVMHDLAKIRAEYELREMLLRLLEEIF [R2-8] is ____.
result: 19.9

query: Item under review: GIAVITLMDLRAYLRAEYELREMLLRLLEEIF [R2-13] . Reported cAMP accumulation (HTRF): Emax?
result: 116

query: GET /values?readout=cAMP accumulation (HTRF): Emax&item= GIAVITLMVLRALLELQEIGRKITLELLKEYI [R2-51]
result: 3.99
